biological target: GRID2IP_2, A4D2P6; test: holdup assay; design: key: below the threshold = too weak to quantify, mostly under pKd 3.1 to 4; conditions: plain residues with an end cap or a label only (N-terminal biotin on a linker: ado-ado)
Sequence (A4D2P6 272-370): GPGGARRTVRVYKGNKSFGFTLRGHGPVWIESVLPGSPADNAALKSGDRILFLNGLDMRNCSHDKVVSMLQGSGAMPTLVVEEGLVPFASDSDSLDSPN
Decision: pKd compared against 4; not below it gives satisfied, below it gives not satisfied.

Here are 5 binders together with their reported answers.
Query: Given PSVGSKKTVL [REELD1, A0A1B0GV85] , state whether its pKd is at least 4.
Reply: satisfied

Query: Has ELSATVTTDC [TRIP6, Q15654] a recorded pKd greater than or equal to 4?
Reply: not satisfied

Query: Check the entry KRPEMTSSSV [MUC3A, MUC3B, Q02505;Q9H195] : does pKd equal or exceed 4?
Reply: not satisfied

Query: I'd appreciate it if you could say whether QRPYRRGSEI [KCNJ18, B7U540] has pKd at least equal to 4.
Reply: not satisfied

Query: Is pKd for REEPDHSTEV [CCRL2, O00421] at or above 4?
Reply: satisfied

Further cases:
Query: Hello, I need to know if DDASLPVSDV [PLEKHA1, Q9HB21] has measured pKd not below 4. Thanks!
Reply: satisfied

Query: Tell me whether pKd is at least 4 here: STKRKLASAV [NCF1, P14598]
Reply: satisfied

Query: Tell me whether pKd is at least 4 here: RDPPAEWTRV [PTPN18, Q99952]
Reply: satisfied

Query: Test whether the binder DTKNYKQTSV [CRIPT, Q9P021] records pKd of 4 or higher.
Reply: satisfied
